# subjectOfTest: GST-Syk Full Protein (human) (Homo sapiens)
# assay: Syk kinase inhibition test (HTRF method)
# Type: biochemical
# testSettings: Tables 1-x, compounds A; read-out: sykHTRF ave IC50
pIC50: −log10 of the molar value. Where a name gives a salt, the structure may show the parent alone.
Give pIC50 for every item shown.

Short answer for CC(=O)NCCN(C)c1ncc(-c2cccc(Nc3cc(C)ccn3)n2)s1 : pIC50 was > 7.00

Short answer for CC(=O)N1CCC(N(C)c2ncc(-c3cccc(Nc4cc(C)ccn4)n3)s2)CC1 : pIC50 was > 7.00

Short answer for Cc1cc(C)nc(Nc2cccc(-c3cnc(N4CCC(CC(=O)O)CC4)s3)n2)c1 : pIC50 was 6.00 to 7.00

Short answer for Cc1ccnc(Nc2cccc(-c3cnc([C@@H]4CN(C)C(=O)O4)s3)n2)c1 : pIC50 was 6.00 to 7.00

Short answer for Cc1ccnc(Nc2cccc(-c3cnc(C4CCN(C(=O)CS(C)(=O)=O)CC4)s3)n2)c1 : pIC50 was 6.00 to 7.00

Short answer for Cc1ccnc(Nc2cccc(-c3cnc(N4CCC(C(=O)O)C4)s3)n2)c1 (stereo not shown) [Compound A-576, dihydrochloride] : pIC50 was > 7.00

Short answer for Cc1ccnc(Nc2cccc(-c3cnc(CN4CCC[C@H]4C(N)=O)s3)n2)c1 : pIC50 was 6.00 to 7.00

Short answer for O=C(O)C(F)C1CCN(c2ncc(-c3cccc(Nc4cnccn4)n3)s2)CC1 (stereo not shown) [Compound A-715, dihydrochloride] : pIC50 was > 7.00

Short answer for Cc1ccnc(Nc2cccc(-c3sc(N4CCN(C=O)CC4)nc3C)n2)c1 : pIC50 was > 7.00

Short answer for Cc1ccnc(Nc2cccc(-c3cnc(N(CC(N)=O)C4CCCCC4)s3)n2)c1 : pIC50 was 6.00 to 7.00

Short answer for Cc1ccnc(Nc2cccc(-c3cnc(N(C)C4CCN(C(=O)CO)CC4)s3)n2)c1 : pIC50 was > 7.00

Short answer for CNC(=O)C(C)(C)NC(=O)C1CCN(c2ncc(-c3cccc(Nc4cc(C)ccn4)n3)s2)CC1 : pIC50 was 6.00 to 7.00

Short answer for CN(C[C@H]1CC[C@H](C(=O)O)CC1)c1ncc(-c2cccc(Nc3ccccn3)n2)s1 [Compound A-699, dihydrochloride] : pIC50 was > 7.00

Short answer for CN(c1ncc(-c2cccc(Nc3cc(C(F)(F)F)ccn3)n2)s1)[C@H]1CC[C@H](C(=O)O)CC1 : pIC50 was > 7.00

Short answer for Cc1ccnc(Nc2cccc(-c3cnc(N(CCCCC(=O)O)C(C)C)s3)n2)c1 : pIC50 was > 7.00

Short answer for CC(=O)N1CCN(c2ncc(-c3cccc(Nc4cc(Cl)ccn4)n3)s2)CC1 : pIC50 was > 7.00

###

# subjectOfTest: GST-Syk Full Protein (human) (Homo sapiens)
# assay: Syk kinase inhibition test (HTRF method)
# Assay type: biochemical
# testSettings: HTRF, 100 μM ATP, 30 min room temperature, average; read-out: sykHTRF ave IC50
# Description: Syk Kinase Inhibition Test (HTRF Method) After the compounds were serially diluted with dimethylsulfoxide (DMSO), 10 μL of those 10-fold diluted with kinase buffer (20 mM HEPES pH 7.0, 10 mM MgCl2, 50 mM NaCl, 1 mM 2-ME, 0.05% BSA) was added to opti-plate HTRF-96 (Packard) (final DMSO concentration: 2%). […]
pIC50: −log10 of the molar value.
Give pIC50 for every item shown.

Short answer for CC(=O)N(CCC(=O)O)Cc1ncc(-c2cccc(Nc3cc(C)ccn3)n2)s1 [Compound A-181] : pIC50 was 6.00 to 7.00

Short answer for Cc1ccnc(Nc2cccc(-c3cnc(CN4CCN(C(=O)CO)CC4)s3)n2)c1 [Compound A-246] : pIC50 was 6.00 to 7.00

Short answer for Cc1ccnc(Nc2cccc(-c3cnc(CCC4CCN(S(C)(=O)=O)CC4)s3)n2)c1 [Compound A-260] : pIC50 was > 7.00

Short answer for COC(=O)CCN(Cc1ncc(-c2cccc(Nc3cc(C)ccn3)n2)s1)C(C)=O [Compound A-164] : pIC50 was 6.00 to 7.00

src = patent US7803801B2
